Values compiled from PubChem BioAssay (Tox21).

test: qHTS assay to identify small molecule agonists of the constitutive androstane receptor (CAR) signaling pathway - cell viability counter screen (AID 1224836); conditions: HepG2-CYP2B6-hCAR viability, CellTiter-Fluor, 23 h, PK11195 added to every well; series mostly up to 92.4 µM; note: nearly all actives have a fitted effect of over 45% in size
Results filed as inconclusive are left out. Activity calls are given as the source filed them. Calls come from the whole dose curve; as a rule, active = well fitted cell-killing curve with a large enough effect in the repeat runs; inconclusive = weak or mixed curves, or effect the other way; inactive = flat fitted curve, though single readings scatter.
Hi there, use one of these labels in your reply, thanks! Y (active), N (inactive)

See these solved cases before continuing.
# Molecule, Cat
data = [
    ("O=Cc1ccccc1", "N"),
    ("CCC1COC(Cn2cncn2)(c2ccc(Cl)cc2Cl)O1 (centres undefined)", "N"),
    ("Oc1cccc(Cl)c1Cl", "N"),
    ("CCOP(=O)(Sc1ccccc1)Sc1ccccc1", "N"),
    ("COCCC#N", "N"),
]

How did this test come out for `COP(=S)(OC)Oc1nc(Cl)c(Cl)cc1Cl` ?
N
